Each recorded value in this set is attributed to patent US8614021B2.

# RUN DESCRIPTION: UV-Vis absorption and photoluminescence (PL) spectroscopy in solvents of varying polarity
# TEST PARAMETERS: DMSO
REPORTED PROPERTY: λem (nm)
Write the value in nm as a bare number.

// solved cases for λem follow
compound_structure_string=ICCCCCCN(CCCCCCI)c1ccc(C=Cc2ccc(C=Cc3ccc(N(CCCCCCI)CCCCCCI)cc3)cc2)cc1 reported_property=λem numeric_result=516
compound_structure_string=C[N+](C)(C)CCCCCCN(CCCCCC[N+](C)(C)C)c1ccc(/C=C/c2ccc(/C=C/c3ccc(/C=C/c4ccc(N(CCCCCC[N+](C)(C)C)CCCCCC[N+](C)(C)C)cc4)cc3)cc2)cc1 reported_property=λem numeric_result=596
compound_structure_string=ICCCCCCN(CCCCCCI)c1ccc(C=Cc2ccc(C=Cc3ccc(C=Cc4ccc(N(CCCCCCI)CCCCCCI)cc4)cc3)cc2)cc1 reported_property=λem numeric_result=602

Now for another entry.
Please report the recorded λem for C[N+](C)(C)CCCCCCN(CCCCCC[N+](C)(C)C)c1ccc(C=Cc2ccc(C=Cc3ccc(N(CCCCCC[N+](C)(C)C)CCCCCC[N+](C)(C)C)cc3)cc2)cc1.[I-].[I-].[I-].[I-] .
511
